- assay_name: in vivo
- study_conditions: mouse, intravenous, ddy strain mice, solution in 0.1 N aqueous sodium hydroxide, read-out: median lethal dose (LD50)
- Method: Each test compound was intravenously administered to groups of 4 ddy strain mice (body weight: 30±1 g) each, whereby its acute toxicity was investigated. In this case, the compound was administered in the form of a solution prepared by dissolving the compound in a 0.1 N aqueous sodium hydroxide solution.
readout: LD50

Solved entries (count: 2):
- molecule: "CC1NCc2cc(-c3ccc4c(=O)c(C(=O)O)cn(C5CC5)c4c3OC(F)F)ccc21 (racemic) [g]"
  LD50: "≥ 200 mg/kg"
- molecule: "CC1NCc2cc(-c3ccc4c(=O)c(C(=O)O)cn(C5CC5)c4c3OC(F)F)ccc21 (single isomer, unassigned; (-)) [i]"
  LD50: "≥ 200 mg/kg"

As a next step, examine the molecule that follows.
Problem: What does the data say about its LD50? Entry: `O=C(O)c1cn(C2CC2)c2c(OC(F)F)c(-c3ccc4c(c3)CNC4)ccc2c1=O`
Solution: ≥ 200 mg/kg

From: patent US6025370A
